test system: human ovarian cancer cell line A2780; assay: Growth inhibition assay (CellTiter 96 Non-Rad Cell Proliferation Assay); type: cell-based; conditions: Homo sapiens, A2780, Table 3, 14 series (thiochroman); A2780
pIC50: −log10 of the molar value.
Recorded pIC50 values for a group of compounds are listed next.

[
  {
    "compound": "CC1(C)CC(C)(C)c2cc(NC(=O)Nc3ccc(C(F)(F)F)cc3)ccc2S1 [Compound 14a]",
    "pIC50": 5.42
  },
  {
    "compound": "CC1(C)CC(C)(C)c2cc(NC(=O)Nc3ccc(OC(F)(F)F)cc3)ccc2S1 [Compound 14b]",
    "pIC50": 5.73
  },
  {
    "compound": "CC1(C)CC(C)(C)c2cc(NC(=S)Nc3ccc(C(N)=O)cc3)ccc2S1 [Compound 14g]",
    "pIC50": 5.45
  },
  {
    "compound": "CC1(C)CCSc2ccc(NC(=S)Nc3ccc([N+](=O)[O-])cc3)cc21 [Compound 14v]",
    "pIC50": 5.40
  },
  {
    "compound": "CC1(C)CC(C)(C)c2cc(NC(=S)Nc3ccc(C(F)(F)F)cc3)ccc2S1 [Compound 14e]",
    "pIC50": 5.54
  },
  {
    "compound": "CC1(C)CC(C)(C)c2cc(NC(=S)NCc3ccccc3)ccc2S1 [Compound 14j]",
    "pIC50": 5.52
  }
]

###

[
  {
    "structureAsSmiles": "CC1(C)CCNc2ccc(NC(=S)Nc3ccc(C(F)(F)F)cc3)cc21",
    "melting point": "104 to 105 °C"
  },
  {
    "structureAsSmiles": "CC1(C)CCNc2ccc(NC(=S)Nc3ccc([N+](=O)[O-])cc3)cc21",
    "melting point": "150 to 152 °C"
  },
  {
    "structureAsSmiles": "CCC1(CC)CC(C)(C)Oc2ccc(NC(=S)Nc3ccc(C(F)(F)F)cc3)cc21",
    "melting point": "155 to 156 °C"
  },
  {
    "structureAsSmiles": "CC1(C)CC(C)(C)c2cc(NC(=S)Nc3ccc(C(F)(F)F)cc3)ccc2O1",
    "melting point": "166 to 168 °C"
  }
]

###

List of Emax values.
test system: human ovarian cancer cell line A2780; assay: Growth inhibition assay (CellTiter 96 Non-Rad Cell Proliferation Assay); type: cell-based; details: Homo sapiens, A2780, 72 h, Table 1; maximal % growth inhibition, A2780, 72 h; read-out: Efficacy

[
  {
    "structureAsSmiles": "CC1(C)CCOc2ccc(NC(=O)Nc3ccc([N+](=O)[O-])cc3)cc21",
    "Emax, %": 74
  },
  {
    "structureAsSmiles": "CCC1(CC)CC(C)(C)Oc2ccc(NC(=S)Nc3ccc(C(F)(F)F)cc3)cc21",
    "Emax, %": 11.8
  },
  {
    "structureAsSmiles": "CCC1(CC)CC(CC)(CC)c2cc(NC(=O)Nc3ccc(C(F)(F)F)cc3)ccc2O1",
    "Emax, %": 86.2
  },
  {
    "structureAsSmiles": "CCC1(CC)CC(C)(C)Oc2ccc(NC(=O)Nc3ccc(C(F)(F)F)cc3)cc21",
    "Emax, %": 93.3
  }
]
